Molecular target: RET wild-type (Homo sapiens)
Sequence (P07949 29-1114): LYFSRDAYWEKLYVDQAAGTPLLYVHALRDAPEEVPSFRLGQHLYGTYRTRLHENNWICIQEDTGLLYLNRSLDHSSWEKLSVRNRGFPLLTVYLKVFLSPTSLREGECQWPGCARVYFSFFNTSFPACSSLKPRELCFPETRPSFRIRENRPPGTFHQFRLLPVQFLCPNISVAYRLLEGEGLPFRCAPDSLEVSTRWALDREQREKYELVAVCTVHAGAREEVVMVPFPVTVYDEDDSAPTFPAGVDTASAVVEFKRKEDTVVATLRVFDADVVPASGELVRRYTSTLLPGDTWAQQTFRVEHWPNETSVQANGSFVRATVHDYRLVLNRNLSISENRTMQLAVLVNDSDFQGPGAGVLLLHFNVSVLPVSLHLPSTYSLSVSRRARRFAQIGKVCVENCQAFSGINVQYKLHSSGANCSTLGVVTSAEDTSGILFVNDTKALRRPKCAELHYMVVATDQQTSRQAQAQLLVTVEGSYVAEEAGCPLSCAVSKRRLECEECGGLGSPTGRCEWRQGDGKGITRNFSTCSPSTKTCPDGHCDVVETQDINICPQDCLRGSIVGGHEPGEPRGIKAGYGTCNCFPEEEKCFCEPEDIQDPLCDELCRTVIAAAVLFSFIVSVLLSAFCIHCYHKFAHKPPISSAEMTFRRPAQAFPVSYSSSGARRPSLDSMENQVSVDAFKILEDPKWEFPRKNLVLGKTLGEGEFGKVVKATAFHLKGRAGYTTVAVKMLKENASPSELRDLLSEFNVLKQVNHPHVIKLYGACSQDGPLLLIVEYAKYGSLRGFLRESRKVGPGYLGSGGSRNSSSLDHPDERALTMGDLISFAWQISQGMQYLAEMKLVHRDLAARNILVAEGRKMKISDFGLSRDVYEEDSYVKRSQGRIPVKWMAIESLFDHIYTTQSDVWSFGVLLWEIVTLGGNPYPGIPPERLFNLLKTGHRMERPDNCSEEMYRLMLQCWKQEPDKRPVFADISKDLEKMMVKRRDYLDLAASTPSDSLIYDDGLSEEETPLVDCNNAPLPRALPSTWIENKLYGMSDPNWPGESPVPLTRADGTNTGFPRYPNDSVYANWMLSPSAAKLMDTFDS
measured_metric: IC50

Noted for CN1CCN(c2ccc(C(=O)Nc3n[nH]c4cc(-c5ccc(O)cc5)c(Cc5cc(F)cc(F)c5)cc34)c(NC3CCOCC3)c2)CC1 : its IC50 reads 120 nM

---

Molecular target: DDR2 wild-type (Homo sapiens, UniProt Q16832)
Sequence (Q16832 22-855): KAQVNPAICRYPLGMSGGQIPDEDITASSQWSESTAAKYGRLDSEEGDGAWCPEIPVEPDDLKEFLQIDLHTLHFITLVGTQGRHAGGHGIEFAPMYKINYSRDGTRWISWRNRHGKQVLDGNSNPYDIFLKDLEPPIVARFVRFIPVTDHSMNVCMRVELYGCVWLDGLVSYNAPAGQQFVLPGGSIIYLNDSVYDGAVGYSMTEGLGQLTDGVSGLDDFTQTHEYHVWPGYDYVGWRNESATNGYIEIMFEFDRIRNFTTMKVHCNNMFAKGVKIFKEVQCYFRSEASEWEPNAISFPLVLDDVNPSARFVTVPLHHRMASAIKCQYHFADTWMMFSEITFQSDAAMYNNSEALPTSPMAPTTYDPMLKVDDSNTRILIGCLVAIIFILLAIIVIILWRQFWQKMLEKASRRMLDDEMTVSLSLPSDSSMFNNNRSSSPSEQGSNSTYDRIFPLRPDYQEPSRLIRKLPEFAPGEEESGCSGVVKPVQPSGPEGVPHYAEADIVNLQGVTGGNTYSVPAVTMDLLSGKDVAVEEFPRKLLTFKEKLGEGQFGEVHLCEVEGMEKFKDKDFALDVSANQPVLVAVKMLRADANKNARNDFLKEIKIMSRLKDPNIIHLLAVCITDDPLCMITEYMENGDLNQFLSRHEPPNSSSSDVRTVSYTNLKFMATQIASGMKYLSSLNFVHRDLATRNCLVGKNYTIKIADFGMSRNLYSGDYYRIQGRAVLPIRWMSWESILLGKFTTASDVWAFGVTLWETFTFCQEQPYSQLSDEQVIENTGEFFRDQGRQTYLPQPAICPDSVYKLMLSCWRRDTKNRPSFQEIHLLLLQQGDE
measured_metric: IC50
Param answer (str): number followed by unit.

Noted for CN1CCN(c2ccc(C(=O)Nc3n[nH]c4cc(-c5ccc(O)cc5)c(Cc5cc(F)cc(F)c5)cc34)c(NC3CCOCC3)c2)CC1 : its IC50 reads 150 nM
